// reported IC50 per item
Target: human VR1 (Homo sapiens)
Sequence (Q8NER1 whole entry): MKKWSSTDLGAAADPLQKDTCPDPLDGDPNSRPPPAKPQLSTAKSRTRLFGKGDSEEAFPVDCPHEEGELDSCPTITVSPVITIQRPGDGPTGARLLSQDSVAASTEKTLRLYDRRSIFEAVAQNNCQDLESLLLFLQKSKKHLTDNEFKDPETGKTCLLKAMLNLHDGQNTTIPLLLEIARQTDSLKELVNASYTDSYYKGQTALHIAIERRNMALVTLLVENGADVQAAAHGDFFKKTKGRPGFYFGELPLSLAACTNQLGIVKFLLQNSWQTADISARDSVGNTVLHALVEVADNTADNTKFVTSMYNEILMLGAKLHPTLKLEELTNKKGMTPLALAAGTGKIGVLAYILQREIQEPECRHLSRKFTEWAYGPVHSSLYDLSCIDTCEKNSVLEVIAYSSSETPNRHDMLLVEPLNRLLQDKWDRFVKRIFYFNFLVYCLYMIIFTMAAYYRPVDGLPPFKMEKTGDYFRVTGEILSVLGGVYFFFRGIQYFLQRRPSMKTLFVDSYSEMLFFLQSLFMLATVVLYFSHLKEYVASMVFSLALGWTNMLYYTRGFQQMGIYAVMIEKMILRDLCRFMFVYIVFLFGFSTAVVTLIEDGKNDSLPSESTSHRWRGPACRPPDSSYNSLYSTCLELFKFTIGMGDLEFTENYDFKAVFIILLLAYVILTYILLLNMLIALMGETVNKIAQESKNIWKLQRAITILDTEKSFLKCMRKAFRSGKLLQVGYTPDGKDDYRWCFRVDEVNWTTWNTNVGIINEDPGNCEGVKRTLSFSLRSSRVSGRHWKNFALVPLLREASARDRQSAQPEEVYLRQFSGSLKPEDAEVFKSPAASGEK
Assay: Capsaicin-induced Ca2+ influx in the human VR1-transfected CHO cell line (Assay 1)
Details: human VR1-CHOluc9aeq cells, stimulation with 10 nM capsaicin, Fluo-3 AM / FDSS-3000; compounds of purity about 40 to 90%; read-out: Activity Class (IC50 of capsaicin-induced Ca2+ influx)
Source text: [Measurement of Capsaicin-Induced Ca^2+ Influx in the Human VR1-Transfected CHO Cell Line] (Assay 1) (1) Establishment of the Human VR1-CHOluc9aeq Cell Line Human vanilloid receptor (hVR1) cDNA was cloned from libraries of axotomized dorsal root ganglia (WO 00/29577). The cloned hVR1 cDNA was constructed with pcDNA3 vector and transfected into a CHOluc9aeq cell line. The cell line contains aequorin and CRE-luciferase reporter genes as read-out signals. […]

Example cases with answers are listed next.
What the record says about Cc1ccc(-c2cccc(NC(=O)Nc3cccc4c3CC(O)CC4)c2)cc1 (centres unmarked) : IC50 is < 100 nM

Sample CN(C)c1ccc(-c2ccc(C(=O)Nc3cccc4c3CC(O)CC4)cc2)cc1 (centres unmarked) ; IC50 observed: < 100 nM

Quick note, IC50 for O=C(NCc1ccc(-c2ccc(Cl)cc2Cl)cc1)Nc1cccc2c1CC(O)CC2 (centres unmarked) landed at < 100 nM

Sample O=C(NCc1ccc(-c2cccc([N+](=O)[O-])c2)cc1)Nc1cccc2c1CC(O)CC2 (centres unmarked) ; IC50 observed: < 100 nM

Further cases:
Measured IC50, O=C(NCc1cccc(-c2cc(C(F)(F)F)cc(C(F)(F)F)c2)c1)Nc1cccc2c1CC(O)CC2 (centres unmarked) : < 100 nM

// field: IC50; key: O=C(NCc1ccc(-c2ccccc2F)cc1)Nc1cccc2c1CC(O)CC2 (centres unmarked) ; value = < 100 nM

So for O=C(NCc1ccc(-c2c(F)cccc2F)cc1)Nc1cccc2c1CC(O)CC2 (centres unmarked) , the logged IC50 turned out to be < 100 nM

Form field IC50, entry O=C(Nc1cccc(-c2ccc(F)cc2)c1)Nc1cccc2c1CC(O)CC2 (centres unmarked) : < 100 nM

====

Reported melting point values are given for each entry in this list.

// known answers, use as guide
Form field melting point, entry O=C(NCc1cccc(-c2cccc([N+](=O)[O-])c2)c1)Nc1cccc2c1CC(O)CC2 (stereo not shown) : 191 to 192 °C

For this compound ( O=C(NCc1ccc(-c2ccc(OC(F)(F)F)cc2)cc1)Nc1cccc2c1CC(O)CC2 (stereo not shown) ), measured melting point is 199 to 200 °C

# melting point (compound: CN(C)c1ccc(-c2cccc(CNC(=O)Nc3cccc4c3CC(O)CC4)c2)cc1 (stereo not shown) ) is 207 to 208 °C

Continuing:
melting point reported for this compound O=C(Nc1cccc(-c2ccc(Cl)c(F)c2)c1)Nc1cccc2c1CC(O)CC2 (stereo not shown) : 94 to 96 °C

====

METRIC: melting point

Known melting point results, listed for orientation:
The recorded melting point for entry CCOC(=O)c1cccc(-c2cccc(NC(=O)Nc3cccc4c3CC(O)CC4)c2)c1 (centres unmarked) equals 142 to 144 °C

For O=C(NCc1cccc(-c2ccc(OC(F)(F)F)cc2)c1)Nc1cccc2c1CC(O)CC2 (centres unmarked) the molecule record lists melting point as 188 to 189 °C

For this molecule ( O=C(NCc1ccc(-c2ccccc2F)cc1)Nc1cccc2c1CC(O)CC2 (centres unmarked) ), measured melting point is 187 to 188 °C

Next:
Given item COc1cccc(-c2cccc(NC(=O)Nc3cccc4c3CC(O)CC4)c2)c1 (centres unmarked) , the value recorded as its melting point is 204 °C

The recorded melting point for CSc1ccc(-c2ccc(CNC(=O)Nc3cccc4c3CC(O)CC4)cc2)cc1 (centres unmarked) is 216 to 217 °C

Record O=C(NCc1cccc(-c2ccc(F)cc2F)c1)Nc1cccc2c1CC(O)CC2 (centres unmarked) , field melting point: 197 to 198 °C

CSc1ccc(-c2cccc(CNC(=O)Nc3cccc4c3CC(O)CC4)c2)cc1 (centres unmarked) yielded melting point of 195 to 196 °C

Per the record, COc1ccc(-c2cccc(C(=O)N(C)c3cccc4c3CC(O)CC4)c2)cc1 (centres unmarked) has melting point of 150 to 151.2 °C
